Please respond with reported Inhibition for every item in the list.
system: Plasmodium falciparum; test: GSK_TCMDC: Inhibition of Plasmodium falciparum 3D7 in whole red blood cells, using parasite LDH activity as an index of growth. Test compounds present at 2uM; format: functional
Answers are plain numbers, in %.

Example results:
[[record]]
compound = "Nc1cccc(CNCc2cccc(-c3cccc(-c4nc5ccccc5[nH]4)c3)c2)c1.O=C(O)C(F)(F)F"
readout_kind = "Inhibition"
experimental_result = 100

[[record]]
compound = "O=C(/C=C/c1ccc(Cl)c(Cl)c1)N1CCC(C(O)CN2CCC(c3c[nH]c4ccccc34)CC2)CC1.O=C(O)C(F)(F)F (stereo not drawn)"
readout_kind = "Inhibition"
experimental_result = 99

[[record]]
compound = "N#Cc1ccc(N/C(=N\\c2cccc(Cl)c2Cl)NCc2ccc(Cl)cc2Cl)c(O)c1"
readout_kind = "Inhibition"
experimental_result = 97

[[record]]
compound = "CCCCC(CC)NC(=O)[C@H]1CNCCN1C(=O)CCCc1ccccc1.O=C(O)C(F)(F)F (stereo partly drawn)"
readout_kind = "Inhibition"
experimental_result = 94

[[record]]
compound = "Cc1cc(F)ccc1Nc1nc(N(C)c2ccccc2)c2cc(OCCCN(C)C)ccc2n1"
readout_kind = "Inhibition"
experimental_result = 100


Dear colleague, could you send me Inhibition for each of the items below? Thanks.
1. COc1ccc2nccc([C@@H](O)CN3CCC(NC(=O)/C=C/c4ccnc5ccccc45)CC3)c2c1
2. CCCC(=O)Nc1ccc(OCCCN(Cc2ccccc2F)c2ccc(C#N)c(C(F)(F)F)c2)cc1
3. O=C(NCCCN1CCN(c2cccc(Cl)c2)CC1)c1ccc(-c2nc3cc(Cl)c(Cl)cc3[nH]2)c(F)c1

Data returned:
1. 91
2. 89
3. 100
